The measurements presented in this section are drawn from BindingDB's records for doi:10.1021/jm00096a016.

target: Thromboxane-A synthase (Bos taurus); test: Inhibitory effect against thromboxane A2 synthase binding to bovine platelets
ATTRIBUTE MEASURED: pIC50
Remember the convention: pIC50 equals -log10 of concentration in molar.

MOLECULE | ATTRIBUTE MEASURED | VAL
O=C(O)c1ccc2c(c1)OCc1ccccc1C2SCCNS(=O)(=O)c1ccccc1 (configuration not stated) | pIC50 | 6.43

// next entry
[Q] Data request, read-out pIC50, for O=C(NCCSC1c2ccccc2COc2ccc(C(=O)O)cc21)Nc1ccccc1 (configuration not stated)
[A] 6.08

====

test: Binding affinity at TXA2 receptor by measuring its ability to displace [3H]U-46619 from guinea pig platelets
Examples of compounds with documented Ki follow.
Just the number please, in nM, no unit attached.

Some compounds with recorded Ki:
COMPOUND | Ki, nM
O=C(O)c1ccc2c(c1)C(SCCNS(=O)(=O)c1ccc3ccccc3c1)c1ccccc1CO2 (configuration not stated) | 14
Cc1ccsc1C(=O)NCCSC1c2ccccc2COc2ccc(C(=O)O)cc21 (configuration not stated) | 10
COc1cc(C(=O)NCCSC2c3ccccc3COc3ccc(C(=O)O)cc32)cc(OC)c1OC (configuration not stated) | 92

[Q] Data request, read-out Ki, for O=C(O)c1ccc2c(c1)C(SCCNS(=O)(=O)c1ccccc1)c1ccccc1CC2 (configuration not stated)
[A] 30

[Q] Data request, read-out Ki, for O=C(O)c1cccc(C(SCCNS(=O)(=O)c2ccccc2)c2ccccc2)c1 (configuration not stated)
[A] 77

[Q] Data request, read-out Ki, for O=C(O)c1ccc2c(c1)C(SCCNS(=O)(=O)c1cccc([N+](=O)[O-])c1)c1ccccc1CO2 (configuration not stated)
[A] 14

[Q] Data request, read-out Ki, for O=C(O)c1ccc2c(c1)C(SCCNC(=S)NCc1ccccc1)c1ccccc1CO2 (configuration not stated)
[A] 6.1

====

assay: Compound was tested for its inhibitory activity against TXA2 synthase obtained from bovine platelet microsomes
ATTRIBUTE MEASURED: IC50
Report field: quantity (unit follows the number).

MOLECULE | ATTRIBUTE MEASURED | VAL
O=C(O)c1ccc2c(c1)OCc1ccccc1C2SCCNS(=O)(=O)c1ccccc1 (configuration not stated) | IC50 | 370 nM

[Q] Data request, read-out IC50, for O=C(NCCSC1c2ccccc2COc2ccc(C(=O)O)cc21)Nc1ccccc1 (configuration not stated)
[A] 830 nM

====

assay: Compound was tested for its binding affinity at Thromboxane A2 receptor by measuring its ability to displace [3H]U-46619 from guinea pig platelets
ATTRIBUTE MEASURED: Ki (nM)
Just the number please, in nM, no unit attached.

Some compounds with recorded Ki:
COMPOUND | Ki / nM
O=C(O)c1ccc2c(c1)C(SCCNS(=O)(=O)c1ccccc1)c1cc(Br)ccc1CO2 (stereo not drawn) | 6.8
O=C(O)c1ccc2c(c1)C(SCCNC(=O)c1ccccc1O)c1ccccc1CO2 (stereo not drawn) | 5.1

// next entry
[Q] Data request, read-out Ki, for O=C(O)c1ccc2c(c1)C(SCCNS(=O)(=O)c1ccccc1[N+](=O)[O-])c1ccccc1CO2 (stereo not drawn)
[A] 15

====

Examples of compounds with documented Ki follow.
experiment: Inhibition of the thromboxane A2 receptor assayed by binding to guinea pig platelets using [3H]U-46619 as radioligand
Just the number please, in nM, no unit attached.

Some compounds with recorded Ki:
COMPOUND | Ki / nM
O=C(O)c1ccc2c(c1)C(SCCNC(=O)c1ccccc1O)c1ccccc1CO2 (stereo unspecified) | 5.1
O=C(O)c1ccc2c(c1)C(SCCNS(=O)(=O)c1cccs1)c1ccccc1CO2 (stereo unspecified) | 5.7
O=C(O)c1ccc2c(c1)C(SCCNS(=O)(=O)c1cccc([N+](=O)[O-])c1)c1ccccc1CO2 (stereo unspecified) | 14

[Q] Data request, read-out Ki, for O=C(O)c1ccc2c(c1)C(SCCNC(=O)c1ccccc1)c1ccccc1CO2 (stereo unspecified)
[A] 44

[Q] Data request, read-out Ki, for O=C(O)c1ccc2c(c1)C(SCCNS(=O)(=O)c1ccc(C(F)(F)F)cc1)c1ccccc1CO2 (stereo unspecified)
[A] 20

[Q] Data request, read-out Ki, for O=C(O)c1ccc2c(c1)C(SCCNC(=S)NCc1ccccc1)c1ccccc1CO2 (stereo unspecified)
[A] 6.1

[Q] Data request, read-out Ki, for Cc1ccc(S(=O)(=O)NCCSC2c3ccccc3COc3ccc(C(=O)O)cc32)cc1 (stereo unspecified)
[A] 27

[Q] Data request, read-out Ki, for O=C(NCCSC1c2ccccc2COc2ccc(C(=O)O)cc21)OCc1ccccc1 (stereo unspecified)
[A] 7.7

[Q] Data request, read-out Ki, for O=C(O)c1ccc2c(c1)C(SCCNS(=O)(=O)c1ccccc1[N+](=O)[O-])c1ccccc1CO2 (stereo unspecified)
[A] 15

[Q] Data request, read-out Ki, for O=C(O)c1ccc2c(c1)C(SCCNS(=O)(=O)c1ccccc1)c1ccccc1C=C2 (stereo unspecified)
[A] 25

====

experiment: Inhibition of the thromboxane A2 receptor assayed by binding to guinea pig platelets using [3H]U-46619 as radioligand
ATTRIBUTE MEASURED: Ki (µM)
Just the number please, in µM, no unit attached.

Some compounds with recorded Ki:
COMPOUND | Ki, µM
O=C(O)c1ccc2c(c1)C(SCCNS(=O)(=O)c1ccccc1)c1ccccc1CC2 (stereo unspecified) | 0.03
O=C(O)c1ccc2c(c1)C(SCCNS(=O)(=O)c1ccccc1)c1cc(Br)ccc1CO2 (stereo unspecified) | 0.0068

[Q] Data request, read-out Ki, for COc1cc(C(=O)NCCSC2c3ccccc3COc3ccc(C(=O)O)cc32)cc(OC)c1OC (stereo unspecified)
[A] 0.092

[Q] Data request, read-out Ki, for Cc1ccsc1C(=O)NCCSC1c2ccccc2COc2ccc(C(=O)O)cc21 (stereo unspecified)
[A] 0.01

[Q] Data request, read-out Ki, for O=C(O)c1cccc(C(SCCNS(=O)(=O)c2ccccc2)c2ccccc2)c1 (stereo unspecified)
[A] 0.077

[Q] Data request, read-out Ki, for O=C(O)c1ccc2c(c1)C(SCCNS(=O)(=O)c1ccc3ccccc3c1)c1ccccc1CO2 (stereo unspecified)
[A] 0.014
